Taken from paper PMC8794802.

Molecular target: T1, Pus7 WT (Saccharomyces cerevisiae, UniProt Q08647 1-676)
T1 sequence: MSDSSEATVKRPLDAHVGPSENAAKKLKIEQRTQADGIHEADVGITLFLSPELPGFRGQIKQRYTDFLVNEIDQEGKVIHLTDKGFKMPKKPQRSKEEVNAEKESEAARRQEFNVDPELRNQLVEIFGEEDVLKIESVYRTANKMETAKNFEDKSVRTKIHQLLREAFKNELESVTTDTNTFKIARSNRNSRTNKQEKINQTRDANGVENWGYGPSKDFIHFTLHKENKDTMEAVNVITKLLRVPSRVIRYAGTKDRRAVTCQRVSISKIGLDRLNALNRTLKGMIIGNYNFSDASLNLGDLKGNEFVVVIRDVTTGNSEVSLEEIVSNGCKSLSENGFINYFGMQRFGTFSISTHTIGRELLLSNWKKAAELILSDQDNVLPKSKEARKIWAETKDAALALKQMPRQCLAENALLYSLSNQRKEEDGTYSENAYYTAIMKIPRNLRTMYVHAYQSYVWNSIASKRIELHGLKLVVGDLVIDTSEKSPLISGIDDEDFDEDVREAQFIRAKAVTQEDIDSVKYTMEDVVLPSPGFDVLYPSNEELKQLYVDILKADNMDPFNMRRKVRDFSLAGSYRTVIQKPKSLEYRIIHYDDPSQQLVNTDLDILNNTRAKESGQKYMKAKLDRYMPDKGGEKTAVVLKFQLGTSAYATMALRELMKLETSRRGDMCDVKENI
Experiment: EMSA
pKd: −log10 of the molar value.
MEASUREMENT_KIND: pKd

[[record]]
binder = "Psi-modified CDC8 (ssRNA, pseudouridine at the UGUAG target U (U15)) RNA: GUCAAUCACGAUUGUAGACGUUACUAAUAAGGGCAUUCAGGAAGUUGAAGCGCUUAUUUGG"
test_value = 7.12

